# measurement.description: folding enthalpy; higher = less favourable; fluorescence melt of hairpins on a sequencing array, two-state fit
# condition.context: sodium 0.088 M
# label = rule met if folding enthalpy >= -30 kcal/mol else rule not met

Confirm if folding enthalpy reported for the sequence GCGAACGATCGC ((((....)))) is -30 kcal/mol or above.
rule met

Confirm if folding enthalpy reported for the sequence GCATCCGAAAGGACATGC ((((((....)))..))) is -30 kcal/mol or above.
rule met

Confirm if folding enthalpy reported for the sequence GATCGGGGAAACCCAATC (((.(((....))).))) is -30 kcal/mol or above.
rule met

Confirm if folding enthalpy reported for the sequence GCACACGGAAACGTACGC ((..(((....)))..)) is -30 kcal/mol or above.
rule met

Confirm if folding enthalpy reported for the sequence GATCAGATAACTGATC ((((((....)))))) is -30 kcal/mol or above.
rule not met

Confirm if folding enthalpy reported for the sequence GATCAAAACTTTGATC ((((((....)))))) is -30 kcal/mol or above.
rule not met

Confirm if folding enthalpy reported for the sequence CGGCCCGGAAACGGTCCG (((.(((....))).))) is -30 kcal/mol or above.
rule not met

Confirm if folding enthalpy reported for the sequence GTAAACGAAAGTTTGTAC ((((((....)))..))) is -30 kcal/mol or above.
rule met

Confirm if folding enthalpy reported for the sequence GCATCTGGAAACAGACGC ((.((((....)))).)) is -30 kcal/mol or above.
rule not met

Confirm if folding enthalpy reported for the sequence GCGAAAACTCGC ((((....)))) is -30 kcal/mol or above.
rule met

Confirm if folding enthalpy reported for the sequence GTATTTCCGAAAGGATAC (((..(((....)))))) is -30 kcal/mol or above.
rule met

Confirm if folding enthalpy reported for the sequence GGCTGGGGAAACCCGGCC (((.(((....))).))) is -30 kcal/mol or above.
rule not met

Confirm if folding enthalpy reported for the sequence GAAGACGAAAGTCGCTTC ((((((....)))..))) is -30 kcal/mol or above.
rule met

Confirm if folding enthalpy reported for the sequence GACCACGAAAGTGATGTC ((((((....)))..))) is -30 kcal/mol or above.
rule met

Confirm if folding enthalpy reported for the sequence ATCGGGAAACCGAT (((((....))))) is -30 kcal/mol or above.
rule met

* * *

Kindly supply the reported Tm values for the records listed here.
# measurement.description: melting temperature; fluorescence melt of hairpins on a sequencing array, two-state fit, raised by 9.35 °C to match UV melts
# condition.context: sodium 0.088 M
Your answer is read as °C, so omit the unit and give the number.

Entry GAGCAAGGAAACCTGCTC (((((.(....).))))) , Tm reported as 48.5

Entry GGCTGAGGAAACTCAGTC (.(((((....))))).) , Tm reported as 51.3

Entry GGACCCGAAAGGGCGTCC ((((((....)))..))) , Tm reported as 49.1

Entry GATCTCTAGTGAGATC ((((((....)))))) , Tm reported as 50.3

Entry GCCGCGCGAAAGCGCCGC ((.((((....)))).)) , Tm reported as 59.7

Entry GCCCCCGAAAGGGCGGGC ((((((....)))..))) , Tm reported as 63.7

Entry GAAAGTGGAAACACCTTC (((.(((....))).))) , Tm reported as 28.8

Entry GCAGAAGCGAAAGCTTGC (((..(((....)))))) , Tm reported as 47.2

Entry GATGACGAAAGTCTTATC ((((((....)))..))) , Tm reported as 25.5

Entry GGCAAGGGAAACCTCGCC (((.(((....))).))) , Tm reported as 47.1

Entry GATCCATTTATGGATC ((((((....)))))) , Tm reported as 60.8

Entry GCTACGCGAAAGCAGAGC (((..((....))..))) , Tm reported as 48.4

Entry GTCGTGCGAAAGCAAGAC (((.(((....))).))) , Tm reported as 59.7

Entry GTCTATCGAAAGATTGAC (((.(((....))).))) , Tm reported as 46.3

Entry GCGCTTCGAAAGAATCGC (((.(((....))).))) , Tm reported as 51.8

Entry GGCACCGAAAGGTACGCC ((((((....)))..))) , Tm reported as 51.4

Entry GTGACTCCGAAAGGACAC (((..(((....)))))) , Tm reported as 35.4

Entry GCAGGTCGAAAGACTTGC (((.(((....))).))) , Tm reported as 56.7

Entry GCGATGGGTCGC ((((....)))) , Tm reported as 54.4

Entry GGCATAGAAATATGCC ((((((....)))))) , Tm reported as 55.4

Entry GAGTTCGGAAACGGATTC ((.(.((....)).).)) , Tm reported as 27.3

Entry GAGAAGCGAAAGCTGCTC (((.(((....))).))) , Tm reported as 58.1

Entry GCACGCGAAAGCGGCTGC ((((((....)))..))) , Tm reported as 65.4

Entry GTGGAAGGAAACTTCTGC (..((((....))))..) , Tm reported as 34.1

src = the array DNA melting data of Ke et al. (doi:10.1101/2024.01.08.574731)
